system: Boophilus microplus; assay: Boophilus microplus injection test (BOOPMI Injection); assay type: in vivo; conditions: Rhipicephalus microplus, 168 h; 4 μg/animal, injection into adult engorged female ticks, egg deposition after 7 days; read-out: activity (efficacy, infertile eggs)
quantity: pest or weed control at 0.004 mg (%)

# record smiles, test target, quantity, value
measured = [
    ("C[C@H](Nc1nc2cc(C(F)(F)F)cc(Cl)c2o1)c1ncnn1-c1ncc(F)cn1", "Boophilus microplus", "pest or weed control at 0.004 mg", 100),
    ("C[C@H](Nc1nc2cc(C(F)(F)F)cc(Cl)c2o1)c1ncnn1-c1ccc(Cl)cn1", "Boophilus microplus", "pest or weed control at 0.004 mg", 80),
    ("C[C@H](Nc1nc2cc(C(F)(F)F)c(Cl)cc2o1)c1ncnn1-c1ncc(Br)cn1", "Boophilus microplus", "pest or weed control at 0.004 mg", 100),
    ("C[C@H](Nc1nc2cc(C(C)(C)C)cc(Cl)c2o1)c1ncnn1-c1ccc(C#N)cn1", "Boophilus microplus", "pest or weed control at 0.004 mg", 100),
]

----------
system: Ctenocephalides felis; test: Ctenocephalides felis oral test (CTECFE); assay type: in vivo; details: 48 h, 100 ppm in cattle blood, after 2 days
quantity: mortality at 100 ppm (%)

# compound, test target, unit of measurement, value
records = [
    ("Cc1cnc(-n2ncnc2[C@H](C)Nc2nc3cc(C(F)(F)F)cc(Cl)c3o2)nc1", "Ctenocephalides felis", "%", 100),
    ("C[C@H](Nc1nc2c(C(F)(F)F)cc(Br)cn2n1)c1ncnn1-c1ncccn1", "Ctenocephalides felis", "%", 100),
    ("CC(Nc1nc2cc(C(F)(F)F)cc(Cl)c2o1)c1nc(C(F)(F)F)nn1-c1ncccn1 (racemic)", "Ctenocephalides felis", "%", 100),
    ("C[C@H](Nc1nc2cc(C3CC3)cc(Cl)c2o1)c1ncnn1-c1ncccc1F", "Ctenocephalides felis", "%", 80),
    ("C[C@H](Nc1nc2cc(S(F)(F)(F)(F)F)cc(Cl)c2o1)c1ncnn1-c1ncccn1", "Ctenocephalides felis", "%", 100),
    ("C[C@H](Nc1nc2cc(Cl)c(SC3CC3)cc2o1)c1ncnn1-c1ncccn1", "Ctenocephalides felis", "%", 100),
    ("C[C@H](Nc1nc2cc(C(F)(F)F)c(Br)cn2n1)c1ncnn1-c1ncccn1", "Ctenocephalides felis", "%", 100),
    ("C[C@H](Nc1nc2cc(C(F)(F)F)cc(Cl)c2o1)c1ncnn1-c1cnc(C#N)cn1", "Ctenocephalides felis", "%", 90),
    ("C[C@H](Nc1nc2cc(C(F)(F)F)cc(Cl)c2o1)c1ncnn1-c1ncc(F)cn1", "Ctenocephalides felis", "%", 100),
    ("CSc1cc2oc(N[C@@H](C)c3ncnn3-c3ncccn3)nc2cc1Cl", "Ctenocephalides felis", "%", 100),
    ("C[C@H](Nc1nc2cc(C(F)(F)F)cc(Br)c2o1)c1ncnn1-c1ncccn1", "Ctenocephalides felis", "%", 100),
    ("C[C@H](Nc1nc2cc(C(F)(F)F)c(Cl)cc2o1)c1ncnn1-c1cnc(C#N)cn1", "Ctenocephalides felis", "%", 100),
    ("C[C@H](Nc1nc2cc(C(C)(C)C)cc(Cl)c2o1)c1ncnn1-c1ncccn1", "Ctenocephalides felis", "%", 80),
    ("Cc1nc([C@H](C)Nc2nc3cc(C(F)(F)F)cc(C(F)(F)F)c3o2)n(-c2ncccn2)n1", "Ctenocephalides felis", "%", 100),
    ("C[C@H](Nc1nc2cc(OC(F)F)cc(Cl)c2o1)c1ncnn1-c1ncccn1", "Ctenocephalides felis", "%", 100),
    ("C[C@H](Nc1nc2cc(C(F)(F)F)cc(Cl)c2o1)c1ncnn1-c1ncc(Cl)cn1", "Ctenocephalides felis", "%", 100),
]
